# METHOD: NCI Yeast Anticancer Drug Screen. Data for the bub3 strain (AID 167)
# SETUP CONDITIONS: S. cerevisiae bub3 mutant strain, at 50.0 µM, hits give high values
The panel holds about 79,000 compounds, 15% with a hit somewhere; the sample as a whole holds those more often.
Outcome: condition met for growth inhibition of at least 80%; condition not met for anything lower.

Illustrative cases are given below, each with its answer.
>>> df
                                   compound         class_name
0           CSc1nc(C)cc(SCc2ccc(Cl)cc2Cl)n1  condition not met
1  C=Cc1cc(N=Nc2ccc([N+](=O)[O-])cc2)ccc1N(C)C  condition not met
2  COc1ccc(C2=C(Cl)C(=O)N(c3ccc(C)cc3)C(=O)C2(Cl)Cl)cc1  condition not met
3    COc1ccc(C(C)(C)c2cc3c(cc2OCCO)OCO3)cc1      condition met
4  O=P1(NCC2CCCO2)OCC2(CO1)COP(=O)(NCC1CCCO1)OC2 (stereo not drawn)      condition met
5  CCCCCCCCCCCCCCCCOC(=O)C[n+]1ccc(C(N)=O)cc1      condition met

# input I'd appreciate it if you could say whether `Nc1c(NCc2ccccc2)ccc2ncccc12` has growth inhibition at least equal to 80%.
# output condition met

# input I'd appreciate it if you could say whether `O=S(=O)(Nc1ccc(-c2ccc(Cl)cc2)cc1)c1ccccc1` has growth inhibition at least equal to 80%.
# output condition met

# input I'd appreciate it if you could say whether `O=[N+]([O-])c1ccc(C2=C[P+](c3ccccc3)(c3ccccc3)C=C(c3ccccc3)O2)cc1` has growth inhibition at least equal to 80%.
# output condition met

# input I'd appreciate it if you could say whether COC1C(=[N+]=[N-])C(=O)NC(=O)N1C1OC(COC(c2ccccc2)(c2ccccc2)c2ccccc2)C(O)C1O (stereo not drawn) has growth inhibition at least equal to 80%.
# output condition not met

# input I'd appreciate it if you could say whether `O=C(N/N=C/c1ccccn1)c1ccccc1[O-].O=C(N/N=C/c1ccccn1)c1ccccc1[O-].[Co+2]` has growth inhibition at least equal to 80%.
# output condition met
